For each record, write down the corresponding IC50.
# tested_on: APOL1 (Homo sapiens, UniProt O14791)
# assay_name: MultiTox-Fluor Multiplex Cytotoxicity Assay, tet-inducible APOL1 T-REx-HEK293 cells (G0, G1 or G2 clone not specified for Table 20)
# assay_setup: tet-induced, 24 hours with compound, ratio of dead to live cells, read-out: IP50 (i.e., IC50 for cell proliferation)

Suppose we examine the compound NC(=O)C1OC2(CCN(Cc3cnc(N)nc3)CC2)c2cc(Cl)ccc21 (centres unmarked) ; what IC50 value has been reported?
50 to 500 nM

Which IC50 reading was recorded for the compound NC(=O)C1OC2(CCN(Cc3ccno3)CC2)c2cc(Cl)ccc21 (centres unmarked) ?
≥ 500 nM

Returns the measured IC50 for the input compound. Input: NC(=O)C1OC2(CCN(Cc3cnn(C4CCS(=O)(=O)C4)c3)CC2)c2cc(Cl)ccc21 (centres unmarked)
≤ 50 nM

Which IC50 reading was recorded for the compound Cc1ccc2c(c1)[C@]1(CCN(Cc3cnc(NC(C)(C)CO)nc3)[C@@H](C)C1)OCC2 ?
≤ 50 nM

Look up IC50 for this compound: Cc1c(CN2CCC3(CC2)OC(C(N)=O)c2ccc(Cl)cc23)cnn1C (centres unmarked)
≥ 500 nM

// lookup IC50 for C[C@H]1C[C@@]2(CCN1Cc1cn(Cc3cn(C4COC4)nn3)nn1)OCCc1ccc(Cl)cc12
≤ 50 nM

I have this compound here, NC(=O)C1OC2(CCN(Cc3cnn(CC4(O)CCS(=O)(=O)CC4)c3)CC2)c2cc(Cl)ccc21 (centres unmarked) , and I need its recorded IC50.
≤ 50 nM

Which IC50 is listed for COc1cncc(CN2CCC3(CC2)C(=O)Nc2ccc(Cl)cc23)c1 ?
≥ 500 nM

====

# tested_on: APOL1 (Homo sapiens)
# assay_name: MultiTox-Fluor Multiplex Cytotoxicity Assay, tet-inducible APOL1 T-REx-HEK293 cells (G0, G1 or G2 clone not specified for Table 20)
# assay_setup: tet-induced, 24 hours with compound, ratio of dead to live cells, read-out: IP50 (i.e., IC50 for cell proliferation)
measurement_type: IC50

// IC50 lookup, key: C[C@H]1C[C@@]2(CCN1Cc1cn(C3CN(S(C)(=O)=O)C3)nn1)OCCc1ccc(Cl)cc12
≤ 50 nM

I would be grateful if you could share the reported IC50 for CC(CO)(CO)Cn1cc(CN2CCC3(CC2)C(=O)Nc2ccc(Cl)cc23)cn1 .
≤ 50 nM

Data request, read-out IC50, for CNC(=O)C1OC2(CCN(Cc3cnn(-c4ccccc4)c3)CC2)c2ccccc21 (stereo not shown)
≥ 500 nM

Requested field: IC50. Item: NC(=O)C1OC2(CCN(Cc3cnc[nH]3)CC2)c2cc(Cl)ccc21 (stereo not shown)
≤ 50 nM

Bench note: what IC50 did NC(=O)C1OC2(CCN(Cc3cc4n(n3)CCOC4)CC2)c2cc(Cl)ccc21 (stereo not shown) show?
≥ 500 nM

Query (compound): NC(=O)C1OC2(CCN(Cc3c[nH]c4cnccc34)CC2)c2cc(Cl)ccc21 (stereo not shown) ; field requested: IC50
≤ 50 nM

Can you look up the measured IC50 of C[C@H]1CC2(CCN1Cc1cnn(-c3ccccc3)c1)OC(C(N)=O)c1ccc(Cl)cc12 (single isomer, unassigned) [Compound 293] for me?
50 to 500 nM

Dear colleague, I am looking for the recorded IC50 of the following compound: Cc1ccc2c(c1)C1(CCN(Cc3cnn(CCO)c3)[C@@H](C)C1)OCC2 (stereo partly shown) [Compound 98]
≤ 50 nM

Requested field: IC50. Item: CC(CO)(CO)Cn1cc(CN2CCC3(CC2)OC(C(N)=O)c2ccc(Cl)cc23)cn1 (stereo not shown)
≤ 50 nM

So what does the record say about IC50 for O=C1Nc2ccc(CC(F)F)cc2C12CCN(Cc1cn[nH]c1)CC2 ?
≥ 500 nM

Suppose we examine the compound O=C1N(CCO)c2ccc(Cl)cc2C12CCN(Cc1cn[nH]c1)CC2 ; what IC50 value has been reported?
50 to 500 nM

Given NC(=O)C1OC2(CCN(Cc3cnn(CC(O)C4(O)CCC4)c3)CC2)c2cc(Cl)ccc21 (stereo not shown) , state its recorded IC50.
≤ 50 nM

// query IC50 value for entry C[C@H]1C[C@@]2(CCN1Cc1cn(CC(O)CO)nn1)OCCc1ccc(Cl)cc12 (stereo partly shown)
≤ 50 nM

Query (compound): CN1C(=O)C2(CCN(Cc3cnn(C[C@H]4C[C@@H](NS(=O)(=O)C5CC5)C4)c3)CC2)c2cc(Cl)ccc21 ; field requested: IC50
≥ 500 nM

Please look up its IC50: CN1C(=O)C2(CCN(Cc3cnn(C)c3)CC2)c2cc(Cl)ccc21
50 to 500 nM

Fill in the blank: the reported IC50 of C[C@H]1C[C@@]2(CCN1Cc1cn(Cc3nc(CO)cs3)nn1)OCCc1ccc(Cl)cc12 is ____.
50 to 500 nM

The reported numbers originate from patent US20250195483A1.
